Numbers sourced from PubChem BioAssay.

assay: COS7 lysate on small-molecule microarray, probe aHis, 635 nm (AID 1123); conditions: COS7 cell lysate, fluorescence, higher = more signal;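 further: z-score combines 667nm fluorescence intensity with signal-to-noise per printed compound spot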
measured_parameter: composite z-score
Respond using a number only.

compound | val
C=C(COC)/C(=C/C[C@H](OC(=O)c1ccncc1)c1cccc(OCCO)c1)c1cc(C(=O)OC)ccc1OC | 0.75
[N-]=[N+]=NCc1ccccc1[C@@H]1OC(c2ccc(OCCCO)cc2)=N[C@]1(Cc1ccccc1)C(=O)N1CCCCC1 | 1.52
C=C[C@H](C)[C@@H](O)c1ccc(O)c2ccccc12 | 0.165
COCCCNC(=O)[C@@]1(c2ccc([N+](=O)[O-])cc2)CC(=O)N(CC23CC4CC(CC(C4)C2)C3)[C@@H]1c1ccc(CO)cc1 | 0.726
C=CCC(OC(C)=O)[C@@H]1[C@@H](N(Cc2ccc(-c3cccc(C(F)(F)F)c3)o2)C(=O)c2ccc(C)cc2)c2cc(OCCCO)ccc2N1C(=O)c1ccc(-c2ccccc2)cc1 (some centres undefined) | -0.0056
COCCOC(=O)N1C(=O)[C@@]2(c3ccccc31)[C@H](C(=O)Nc1nc3ccccc3s1)[C@H]1C(=O)O[C@H](c3ccccc3)[C@H](c3ccccc3)N1[C@@H]2c1ccc(OCCO)cc1 | 2.33
COc1c(C)cc(-c2cc3c(c(-c4ccc(Oc5ccccc5)cc4)n2)[Si](C(C)C)(C(C)C)OC3)cc1C | -0.202
CCCCC(CC)C(O)C1C=CC2C(=O)N(c3ccccc3)C(=O)C2N1Nc1ccccc1 (centres undefined) | 2.28

So, CCCCC=C[C@@H](NC(=O)c1cccs1)c1ccccc1 ? Its composite z-score was 1.35

So, O=C1OCCC/C=C\[C@H]2OC34C=CCN(Cn5nnc6ccccc65)C(=O)[C@H]3N(CCCCCO)C(=O)[C@@H]4C12 (some centres undefined) ? Its composite z-score was 0.0505

So, C=CCN1C(=O)[C@]2(O[C@H](CCO)[C@@H]([Si](C)(C)c3ccc(OC)cc3)[C@@H]2C)c2cc(NC(=O)[C@H](C)O)ccc21 ? Its composite z-score was 1.39

So, C=CCC(OC(C)=O)[C@@H]1[C@@H](N(Cc2cc3ccccc3o2)C(=O)c2ccc(C)cc2)c2cc(OCCCO)ccc2N1C(=O)c1ccc2ccccc2c1 (some centres undefined) ? Its composite z-score was 0.605

So, [N-]=[N+]=NCc1ccccc1C[C@@]1(C(=O)N2CCOCC2)N=C(c2ccc(OCCCO)cc2)O[C@@H]1c1ccccc1CN=[N+]=[N-] ? Its composite z-score was 2.61

So, COC(=O)c1ccc(C23CC2(C(NP(=O)(c2ccccc2)c2ccccc2)c2ccccc2)C3)cc1 (centres undefined) ? Its composite z-score was 2.8

So, C=C[C@H](COC(C)=O)N(Cc1ccc(OC(C)=O)c(OC)c1)S(=O)(=O)c1ccc(Br)cc1 ? Its composite z-score was 0.987

So, COc1ccc(C(=O)Nc2cccc(CN3C(=O)[C@@]4(O[C@@H](CCn5cc(CCO)nn5)[C@H]([Si](C)(C)c5ccc(OC)cc5)[C@H]4C)c4ccccc43)c2)cc1 ? Its composite z-score was 0.733

So, [N-]=[N+]=Nc1ccccc1C[C@]1(C(=O)NCCN2CCOCC2)N=C(c2ccc(OCCCO)cc2)O[C@H]1c1ccccc1 ? Its composite z-score was 2.7

So, COCC(=C=CC[C@H](O)c1ccc(OCCO)cc1)C[C@H](O)c1cc(Cl)cc(Cl)c1O ? Its composite z-score was -1.65

So, CC(C)C(=C=CC[C@@H](O)c1ccccc1OCCO)C[C@@H](O)c1ccccn1 ? Its composite z-score was 0.287

So, C=C(C(=O)CC[C@H](OC(C)=O)c1ccc(OCCO)cc1)C(C)C ? Its composite z-score was 0.354

So, CC(C)C[C@@H]1NC(=O)[C@H]2C[C@@H](C(=O)NCCCCCCNC(=O)CS)[C@@H](c3cccc(OCCO)c3)N2C1=O ? Its composite z-score was 1.68
